# TARGET_OF_ASSAY: T1, human RXFP1 (human, UniProt Q9HBX9 1-757)
# T1 sequence (looked up): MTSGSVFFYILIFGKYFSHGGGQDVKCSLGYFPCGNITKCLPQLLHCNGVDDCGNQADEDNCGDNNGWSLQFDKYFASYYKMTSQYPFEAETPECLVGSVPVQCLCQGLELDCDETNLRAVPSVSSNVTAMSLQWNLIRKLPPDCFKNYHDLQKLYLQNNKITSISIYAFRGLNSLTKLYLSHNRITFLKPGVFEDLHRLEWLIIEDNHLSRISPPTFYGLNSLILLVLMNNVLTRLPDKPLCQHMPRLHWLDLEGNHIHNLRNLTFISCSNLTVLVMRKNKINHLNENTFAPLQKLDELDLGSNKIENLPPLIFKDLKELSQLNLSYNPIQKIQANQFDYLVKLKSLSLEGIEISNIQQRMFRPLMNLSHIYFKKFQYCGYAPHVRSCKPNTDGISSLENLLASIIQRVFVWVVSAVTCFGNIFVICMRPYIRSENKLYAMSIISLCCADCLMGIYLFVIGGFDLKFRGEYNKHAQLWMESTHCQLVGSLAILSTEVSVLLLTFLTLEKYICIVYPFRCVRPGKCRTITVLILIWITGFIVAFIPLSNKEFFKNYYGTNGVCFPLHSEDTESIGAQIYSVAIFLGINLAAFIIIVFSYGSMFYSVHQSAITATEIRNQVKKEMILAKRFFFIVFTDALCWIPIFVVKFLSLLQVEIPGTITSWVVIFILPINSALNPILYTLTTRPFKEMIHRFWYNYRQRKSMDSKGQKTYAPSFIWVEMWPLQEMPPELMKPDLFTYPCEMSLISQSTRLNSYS
# PROTOCOL: cell-based or functional assay
Numbered stars: 1 amine (or outer) side, 2 acyl side, 3 side chain; on linkers, the order of the positions; unused ones are H or OH. Square brackets hold non-standard residues; d marks the D form. Side chains are listed from the residue outwards. * marks the point of attachment. TTDS = 4-[3-[2-[2-(3-aminopropoxy)ethoxy]ethoxy]propylamino]-4-oxo-butanoyl; γGlu = O=C(O)[C@H](CCC(=O)[*:2])N[*:1]; Palmitoyl = CCCCCCCCCCCCCCCC(=O)*; Cit = NC(=O)NCCC[C@H](N)C(=O)O; αMeK = C[C@](N)(CCCCN)C(=O)O; Aib = CC(C)(N)C(=O)O
I'd appreciate it if you could supply EMax, OVCAR 5 cells (cAMP) values for the items below.

Which measured EMax, OVCAR 5 cells (cAMP) value corresponds to Ac-LEGREKVRAK(Ac)I[Aib]IEGK([TTDS-TTDS-TTDS-TTDS-γGlu-γGlu-γGlu-Palmitoyl])STWS[Aib]RKK(Ac)-NH2 [Relaxin peptide analogue of SEQ ID NO: 74] ?
94%

Which measured EMax, OVCAR 5 cells (cAMP) value corresponds to Ac-LEGREKVRAK(Ac)I[Aib][Aib]EGK([TTDS-TTDS-TTDS-γGlu-γGlu-γGlu-Palmitoyl])STFS[Aib]RAK(Ac)-NH2 [Relaxin peptide analogue of SEQ ID NO: 2] ?
99%

Which measured EMax, OVCAR 5 cells (cAMP) value corresponds to Ac-LEGREKVRAK(Ac)I[Aib][Aib]EGK([TTDS-TTDS-TTDS-γGlu-γGlu-γGlu-Palmitoyl])SKFS[Aib]RKK(Ac)-NH2 [Relaxin peptide analogue of SEQ ID NO: 79] ?
95%

Which measured EMax, OVCAR 5 cells (cAMP) value corresponds to Ac-LEGREKVRA[Cit]I[Aib][Aib]EGK([TTDS-TTDS-TTDS-γGlu-γGlu-γGlu-Palmitoyl])STFS[αMeK]RAK(Ac)-NH2 [Relaxin peptide analogue of SEQ ID NO: 12] ?
90%
